Collected Ki values appear next to each entry.
Biological target: anthrax lethal factor protease (Bacillus anthracis, UniProt P15917)
Sequence (P15917 34-809 limits assumed): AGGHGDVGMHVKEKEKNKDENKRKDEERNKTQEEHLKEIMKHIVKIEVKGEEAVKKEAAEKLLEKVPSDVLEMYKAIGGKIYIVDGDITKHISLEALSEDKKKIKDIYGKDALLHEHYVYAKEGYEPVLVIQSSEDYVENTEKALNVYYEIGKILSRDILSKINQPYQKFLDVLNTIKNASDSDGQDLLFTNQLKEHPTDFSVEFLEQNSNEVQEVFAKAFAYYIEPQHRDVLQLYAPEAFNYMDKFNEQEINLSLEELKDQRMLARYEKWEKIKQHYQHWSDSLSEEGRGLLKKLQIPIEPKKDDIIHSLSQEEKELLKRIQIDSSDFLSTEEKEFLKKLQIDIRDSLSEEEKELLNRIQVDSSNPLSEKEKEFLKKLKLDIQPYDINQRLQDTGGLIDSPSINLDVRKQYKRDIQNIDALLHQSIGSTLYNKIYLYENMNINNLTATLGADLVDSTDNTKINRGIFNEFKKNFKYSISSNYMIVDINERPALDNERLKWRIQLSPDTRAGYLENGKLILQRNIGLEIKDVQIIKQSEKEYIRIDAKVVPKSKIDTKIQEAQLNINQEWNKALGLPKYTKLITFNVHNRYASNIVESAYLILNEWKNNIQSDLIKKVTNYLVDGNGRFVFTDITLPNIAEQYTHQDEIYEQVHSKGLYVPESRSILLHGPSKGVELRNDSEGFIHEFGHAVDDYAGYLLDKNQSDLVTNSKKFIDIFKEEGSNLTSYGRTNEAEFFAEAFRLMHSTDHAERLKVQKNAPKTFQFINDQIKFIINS

{"query_smiles": "Nc1c(/C=C/c2cc3cc(C4=NCCN4)ccc3o2)[nH]c2cc(C3=NCCN3)ccc12", "assay_system": "anthrax lethal factor protease (Bacillus anthracis, UniProt P15917)", "Ki (µM)": 4.9}
{"query_smiles": "Cc1cc(N)c2cc(NC(=O)Nc3ccc4nc(C)cc(N)c4c3)ccc2n1", "assay_system": "anthrax lethal factor protease (Bacillus anthracis, UniProt P15917)", "Ki (µM)": 0.5}
{"query_smiles": "c1cc(-c2nc3cc(-c4nc5cc(C6=NCCN6)ccc5[nH]4)ccc3[nH]2)ccc1C1=NCCN1", "assay_system": "anthrax lethal factor protease (Bacillus anthracis, UniProt P15917)", "Ki (µM)": 4.2}

###

Biological target: anthrax lethal factor protease (Bacillus anthracis)
Assay: biochemical
Type: biochemical
Collected Percent Inhibition values appear next to each entry.

{"compound": "N=C(N)N/N=C/c1ccc(-c2cc3ccc(/C=N/NC(=N)N)cc3s2)cc1", "Percent Inhibition": 90}
{"compound": "C(=C\\c1cc2ccc(C3=NCCN3)cc2o1)/c1cc2cc(C3=NCCN3)ccc2[nH]1 [NSC 294204]", "Percent Inhibition": 84}
{"compound": "c1cc2cc(-c3ccc(-c4cc5ccc(C6=NCCN6)cc5[nH]4)cc3)[nH]c2cc1C1=NCCN1", "Percent Inhibition": 97}
{"compound": "Nc1ccc(/N=N/c2ccc3cc4ccc(/N=N/c5ccc(N)nc5N)cc4nc3c2)c(N)n1", "Percent Inhibition": 40}
{"compound": "N=C(N)c1ccc2[nH]c(/C=C/c3cc4cc(C(=N)N)ccc4o3)cc2c1", "Percent Inhibition": 85}
{"compound": "N=C(N)c1ccc(/C=C/c2cc3cc(C(=N)N)ccc3[nH]2)cc1", "Percent Inhibition": 95}
{"compound": "N=C(N)c1ccc2[nH]c(/C=C/c3cc4ccc(C(=N)N)cc4o3)cc2c1", "Percent Inhibition": 92}
{"compound": "N=C(N)c1ccc2cc(/C=C/c3cc4ccc(C(=N)N)cc4o3)[nH]c2c1", "Percent Inhibition": 92}
{"compound": "N=C(N)c1ccc(-c2[nH]c3cc(C(=N)N)ccc3c2N)cc1", "Percent Inhibition": 46}
{"compound": "O=C(Nc1ccc(C2=NCCN2)cc1)c1cc2ccc(C3=NCCN3)cc2[nH]1", "Percent Inhibition": 56}
{"compound": "c1cc(-c2[nH]c3cc(C4=NCCN4)ccc3c2-c2cc3ccc(C4=NCCN4)cc3[nH]2)ccc1C1=NCCN1", "Percent Inhibition": 64}
{"compound": "C(=C\\c1cc2ccc(C3=NCCN3)cc2o1)/c1cc2cc(C3=NCCN3)ccc2[nH]1 [NSC 294201]", "Percent Inhibition": 88}
{"compound": "N=C(N)c1ccc(/C=C/c2cc3ccc(C(=N)N)cc3[nH]2)cc1", "Percent Inhibition": 93}
{"compound": "C(=C\\c1cc2ccc(C3=NCCN3)cc2o1)/c1cc2ccc(C3=NCCN3)cc2o1", "Percent Inhibition": 29}
{"compound": "N=C(N)c1ccc(Oc2ccc(-c3cc4ccc(C(=N)N)cc4[nH]3)cc2)cc1", "Percent Inhibition": 72}
{"compound": "CCOc1ccc2c(N)c3ccc(/N=N/c4ccc(N)nc4N)cc3nc2c1", "Percent Inhibition": 95}
{"compound": "C/C(=C\\c1ccc(/C=C/c2cc3ccc(C4=NCCN4)cc3[nH]2)[nH]1)C1=NCCN1", "Percent Inhibition": 93}

###

Target: anthrax lethal factor protease (Bacillus anthracis, UniProt P15917)
Test: biochemical
Type: biochemical
outcome_measure: inhibition at 20 µM (%)

{"query_smiles": "c1cc2cc(-c3ccc4cc(-c5ccc6oc(C7=NCCN7)cc6c5)[nH]c4c3)[nH]c2cc1C1=NCCN1", "measured_value": 90}
{"query_smiles": "N=C(N)c1ccc(N=Nc2cc(N=Nc3ccc(C(=N)N)cc3)c(O)cc2O)cc1", "measured_value": 48}
{"query_smiles": "c1cc(-c2nc3cc(-c4nc5cc(C6=NCCN6)ccc5[nH]4)ccc3[nH]2)ccc1C1=NCCN1", "measured_value": 90}
{"query_smiles": "c1cc(C2=NCCN2)ccc1Nc1ccc(-c2cc3ccc(C4=NCCN4)cc3[nH]2)cc1", "measured_value": 33}
{"query_smiles": "Nc1c(/C=C/c2cc3cc(C4=NCCN4)ccc3o2)[nH]c2cc(C3=NCCN3)ccc12", "measured_value": 90}
{"query_smiles": "Cc1cc(N)c2cc(NC(=O)Nc3ccc4nc(C)cc(N)c4c3)ccc2n1", "measured_value": 95}
